Taken from paper PMC9921493.

Protein target, amino acids: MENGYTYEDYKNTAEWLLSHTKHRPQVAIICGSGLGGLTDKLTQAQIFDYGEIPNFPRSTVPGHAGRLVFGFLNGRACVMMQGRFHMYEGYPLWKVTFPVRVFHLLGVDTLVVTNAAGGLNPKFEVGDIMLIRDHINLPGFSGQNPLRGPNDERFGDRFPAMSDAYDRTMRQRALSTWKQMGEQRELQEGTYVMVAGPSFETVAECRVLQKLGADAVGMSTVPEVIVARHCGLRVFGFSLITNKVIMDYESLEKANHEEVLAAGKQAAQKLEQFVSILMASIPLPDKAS
Metric: Ki
Note to self: number, then unit, no commentary.

Ask: What value of Ki has been reported for the following compound? `Nc1ncccc1-c1cc[nH]c1`
Result: 860 µM
